Value source: the NIST ThermoML archive (doi:10.1021/je1005517)

test: activity coefficient (dimensionless); of the first substance listed, at infinite dilution; xn = mol fraction of the nth substance listed; conditions: 353.15 K; 101 kPa; Liquid; GC; x1 = 0
ASSAY_METRIC: activity coefficient
Write the value as a bare number.

State its activity coefficient: CC#N [acetonitrile] + CCCCCCCCCCCCCCCCCCO
0.0766

State its activity coefficient: CCO [ethanol] + CCCCCCCCCCCCCCCCCCCCO
0.095

State its activity coefficient: CCCCO [butan-1-ol] + CCCCCCCCCCCCCCCCCCCCO
0.316

State its activity coefficient: CCCCC [pentane] + CCCCCCCCCCCCCCCCCCO
0.0231

State its activity coefficient: CCCCCCCC [octane] + CCCCCCCCCCCCCCCCCCCCO
0.12

State its activity coefficient: C=CCCCCC [1-heptene] + CCCCCCCCCCCCCCCCCCCCO
0.108

###

Task for the reader: assign each of the following molecules its reported activity coefficient.
assay: activity coefficient (dimensionless); of the first substance listed, at infinite dilution; xn = mol fraction of the nth substance listed; settings: 348.15 K; 101 kPa; Liquid; GC; x1 = 0
Write the value as a bare number.

State its activity coefficient: ClC(Cl)Cl [trichloromethane] + CCCCCCCCCCCCCCCCCCCCO
0.0612

State its activity coefficient: Cc1ccccc1 [toluene] + CCCCCCCCCCCCCCCCCCCCO
0.421

State its activity coefficient: CO [methanol] + CCCCCCCCCCCCCCCCCCCCO
0.0737

State its activity coefficient: CCCCCl [1-chlorobutane] + CCCCCCCCCCCCCCCCCCO
0.0321

State its activity coefficient: CCCCO [butan-1-ol] + CCCCCCCCCCCCCCCCCCCCO
0.352

State its activity coefficient: CCCCCl [1-chlorobutane] + CCCCCCCCCCCCCCCCCCCCO
0.0919

State its activity coefficient: CCCO [propan-1-ol] + CCCCCCCCCCCCCCCCCCCCO
0.175

State its activity coefficient: CCCCC [pentane] + CCCCCCCCCCCCCCCCCCO
0.0243

State its activity coefficient: CCOC(C)=O [ethyl acetate] + CCCCCCCCCCCCCCCCCCCCO
0.099

State its activity coefficient: Cc1ccccc1 [toluene] + CCCCCCCCCCCCCCCCCCO
0.0331

State its activity coefficient: C1CCCCC1 [cyclohexane] + CCCCCCCCCCCCCCCCCCO
0.0294

State its activity coefficient: CCO [ethanol] + CCCCCCCCCCCCCCCCCCCCO
0.106

State its activity coefficient: CC#N [acetonitrile] + CCCCCCCCCCCCCCCCCCO
0.0832

State its activity coefficient: CCOCC [diethyl ether] + CCCCCCCCCCCCCCCCCCO
0.0204

###

experiment: activity coefficient (dimensionless); of the first substance listed, at infinite dilution; xn = mol fraction of the nth substance listed; conditions: 343.15 K; 101.3 kPa; Liquid; GC; x1 = 0
ASSAY_METRIC: activity coefficient
Write the value as a bare number.

State its activity coefficient: C=CCCCCC [1-heptene] + CCCCCCCCCCCCCCCCCCO
0.0407

State its activity coefficient: CCO [ethanol] + CCCCCCCCCCCCCCCCCCO
0.0369

State its activity coefficient: CCCCO [butan-1-ol] + CCCCCCCCCCCCCCCCCCO
0.121

State its activity coefficient: CCCO [propan-1-ol] + CCCCCCCCCCCCCCCCCCO
0.0597

State its activity coefficient: CCCCl [1-chloropropane] + CCCCCCCCCCCCCCCCCCO
0.0269

State its activity coefficient: ClCCl [dichloromethane] + CCCCCCCCCCCCCCCCCCO
0.0212

###

assay: activity coefficient (dimensionless); of the first substance listed, at infinite dilution; xn = mol fraction of the nth substance listed; details: 338.15 K; 101 kPa; Liquid; GC; x1 = 0
ASSAY_METRIC: activity coefficient
Write the value as a bare number.

State its activity coefficient: CC(C)=O [acetone] + CCCCCCCCCCCCCCCCCCCCO
0.0557

State its activity coefficient: C=CCCCCC [1-heptene] + CCCCCCCCCCCCCCCCCCCCO
0.124

State its activity coefficient: CCCCCCCC [octane] + CCCCCCCCCCCCCCCCCCO
0.0497
